# Experiment description: Mouse Pharmacokinetics Study
# Type: in vivo
# Test settings: mouse; CD-1 mice, PO 30 mg/kg, plasma

Molecule	Tmax
CCCS(=O)(=O)Nc1cccc(Oc2ccc3c(c2)C2=NCCN2C=N3)c1C#N [Compound 1]	1 h

---

# Papp B→A at 120 min values compiled below
# Tested on: P-glycoprotein (MDR1)
# Experiment description: MDCK-MDR1 Permeability Assay
# Type: in vitro ADME, canine
# Test settings: dog; MDCK-MDR1, basolateral to apical, 1-30 μM, 120 minutes
Readout: Papp B→A at 120 min (×10⁻⁶ cm/s)

Compound	System under test	Assay value
CCCS(=O)(=O)Nc1cccc(Oc2ccc3c(c2)C2=NCCN2C=N3)c1C#N [Compound 1]	P-glycoprotein (MDR1)	23.8
CCCS(=O)(=O)Nc1c(F)ccc(Oc2ccc3c(c2)C2=NCCN2C=N3)c1C#N [Compound 5]	P-glycoprotein (MDR1)	2.19
CCCS(=O)(=O)Nc1cccc(Oc2ccc3c(c2)C2=NCCN2C=N3)c1F [Compound 9]	P-glycoprotein (MDR1)	43.4
CCCS(=O)(=O)Nc1nccc(Oc2ccc3c(c2)C2=NCCCN2C=N3)c1Cl [Compound 26]	P-glycoprotein (MDR1)	19.6
CCCS(=O)(=O)Nc1cccc(Oc2ccc3c(c2)C2=NCCN2C=N3)c1C(F)(F)F [Compound 11]	P-glycoprotein (MDR1)	42.3
CCCS(=O)(=O)Nc1cccc(Oc2ccc3c(c2)C2=NCCCN2C=N3)c1Cl [Compound 21]	P-glycoprotein (MDR1)	40.5
CCCS(=O)(=O)Nc1cccc(Oc2ccc3c(c2)C2=NCCCN2C=N3)c1C#N [Compound 16]	P-glycoprotein (MDR1)	8.89
CCCS(=O)(=O)Nc1cccc(Oc2ccc3c(c2)C2=NCCN2C=N3)c1[N+](=O)[O-] [Compound 12]	P-glycoprotein (MDR1)	28.4
O=S(=O)(Nc1cccc(Oc2ccc3c(c2)C2=NCCN2C=N3)c1Cl)N1CC[C@@H](F)C1 [Compound 46]	P-glycoprotein (MDR1)	57.9
N#Cc1c(NS(=O)(=O)c2cccs2)cccc1Oc1ccc2c(c1)C1=NCCN1C=N2 [Compound 15]	P-glycoprotein (MDR1)	5.36
CCCS(=O)(=O)Nc1ccc(F)c(Oc2ccc3c(c2)C2=NCCCN2C=N3)c1C#N [Compound 17]	P-glycoprotein (MDR1)	9.28
CCCS(=O)(=O)Nc1cccc(Oc2ccc3c(c2)C2=NCCN2C=N3)c1Cl [Compound 6]	P-glycoprotein (MDR1)	37.2
CCCS(=O)(=O)N(C)c1cccc(Oc2ccc3c(c2)C2=NCCN2C=N3)c1C#N [Compound 2]	P-glycoprotein (MDR1)	50
CCCS(=O)(=O)Nc1ccc(F)c(Oc2ccc3c(c2)C2=NCCN2C=N3)c1C#N [Compound 3]	P-glycoprotein (MDR1)	21.2
N#Cc1c(NS(=O)(=O)c2ccccc2F)cccc1Oc1ccc2c(c1)C1=NCCN1C=N2 [Compound 14]	P-glycoprotein (MDR1)	8.29

---

# Test system: P-glycoprotein (MDR1)
# Experiment description: MDCK-MDR1 Permeability Assay
# Assay type: in vitro ADME, canine
# Test settings: dog; MDCK-MDR1, apical to basolateral, 1-30 μM, 120 minutes
Readout: Papp A→B at 120 min (×10⁻⁶ cm/s)

Structure smiles	System under test	Readout	Assay value
CCCS(=O)(=O)Nc1cccc(Oc2ccc3c(c2)C2=NCCN2C=N3)c1C(F)(F)F	P-glycoprotein (MDR1)	Papp A→B at 120 min	34.6
CCCS(=O)(=O)Nc1ccc(F)c(Oc2ccc3c(c2)C2=NCCN2C=N3)c1C#N	P-glycoprotein (MDR1)	Papp A→B at 120 min	2.15
N#Cc1c(NS(=O)(=O)c2ccccc2F)cccc1Oc1ccc2c(c1)C1=NCCN1C=N2	P-glycoprotein (MDR1)	Papp A→B at 120 min	3.03
CCCS(=O)(=O)Nc1cccc(Oc2ccc3c(c2)C2=NCCN2C=N3)c1C#N	P-glycoprotein (MDR1)	Papp A→B at 120 min	3.65
CCCS(=O)(=O)N(C)c1cccc(Oc2ccc3c(c2)C2=NCCN2C=N3)c1C#N	P-glycoprotein (MDR1)	Papp A→B at 120 min	19
CCCS(=O)(=O)Nc1cccc(Oc2ccc3c(c2)C2=NCCN2C=N3)c1F	P-glycoprotein (MDR1)	Papp A→B at 120 min	17.6
CCCS(=O)(=O)Nc1cccc(Oc2ccc3c(c2)C2=NCCN2C=N3)c1[N+](=O)[O-]	P-glycoprotein (MDR1)	Papp A→B at 120 min	6.6
CCCS(=O)(=O)Nc1nccc(Oc2ccc3c(c2)C2=NCCCN2C=N3)c1Cl	P-glycoprotein (MDR1)	Papp A→B at 120 min	3.95
